target: T1, AAV5; experiment: SPR, AAV on CM5 chip;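 further: surface plasmon resonance with AAV amine-coupled to the chip as ligand, nanobodies injected as analyte over a concentration series, rate constants and affinity fitted from binding curves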
T1 construct: also called adeno-associated virus serotype 5
Please provide measured kon for the entries that follow.
In your response, put the unit directly after the numeric value.

{"binder": "A4-019 (VHH) VHH: VQLQESGGGLVQAGGSLRLSCAASGSTFSINTMGWYRQAPGKQRELVATITRGGSTNYADSVKGRFTISRDNAKNTVYLQMNSLRPEDTAVYYCHVDEVRQSSWTTSNIWGQGTQVTVSS", "kon": "31900 M⁻¹ s⁻¹"}
{"binder": "A4-045 (VHH) VHH: VQLQESGGGLVQPGGSLRLSCAASGSSFSINTMGWYRQAPGKQRELVAAVTRGGVTNYADSVKGRFTISRDNAKNTVYLQMNSLRPEDTAVYYCHVDEVRQSSWTTSNLWGQGTQVTVSS", "kon": "8950 M⁻¹ s⁻¹"}
{"binder": "A4-017 (VHH) VHH: VQLQESGGGLVQPGGSLRLSCAASGSIFSINLMGWYRQAPGKQRELVATITRGGNTNYAGSVKGRFTISRDNAKNTVYLQMNSLRPEDTAVYYCHVDEVRQSSWTTSNLWGQGTQVTVSS", "kon": "3030 M⁻¹ s⁻¹"}
{"binder": "A4-023 (VHH) VHH: VQLQESGGGLVQPGGSLRLSCAASGSAFSINTMGWYRQAPGKQRELVASVTPGGSTNYADSVKGRFTISRDNAKNTIYLQMNSLRPEDTAVYYCHLDEVRESSWTTSNLWGQGTQVTVSS", "kon": "102000 M⁻¹ s⁻¹"}

Hello, I would appreciate it if you could give kon for each entry below.
1. A4-021 (VHH) VHH: VQLQESGGGLVQAGGSLRLSCAASGSTFSINTMGWYRQAPGKQRELVATITRGGNTNYADSVKGRFTISRDNAKNTVYLQMNSLRPEDTAVYYCHVDEVRQSSWTTSNIWGQGTQVTVSS
2. A4-004 (VHH) VHH: VQLQESGGGLVQPGGSLRLSCAASGSRFSINTMGWYRQAPGKQRELVAAVTRGGSTNYAGSVKGRFTISRDNAKNTVYLQMNSLRPEDTAVYYCHIDEVRQSSWTTSNIWGQGTQVTVSS
3. A4-035 (VHH) VHH: VQLQESGGGLVQAGGSLRLSCAASGRGFSINTMGWYRQAPGKQRELVAAVTRGGTTNYADSVKGRFTISRDNAKNTVYLQMNSLRPEDTAVYYCHVDEVRQSSWTTSNLWGQGTQVTVSS
4. A4-013 (VHH) VHH: VQLQESGGGLVQPGGSLRLSCAASGSRFSINSMGWYRQAPGKQRELVATVTRGGNTNYADSVKGRFTISRDNAKNTVYLQMNSLRPEDTAVYYCHVDEVRESSWTTSNLWGQGTQVTVSS

1: 120000 M⁻¹ s⁻¹; 2: 181000 M⁻¹ s⁻¹; 3: 199000 M⁻¹ s⁻¹; 4: 15200 M⁻¹ s⁻¹
